- System: Staphylococcus epidermis 270
- Method notes: Broth micro-dilution MIC, SE 270
- Type: cell-based
- Condition summary: unit assumed
Please provide measured MIC, SE270 for the entries that follow.
Numbers only, in µg/mL.

// below: answered compounds
[[record]]
compound = "CNC(CC(C)C)C(=O)NC1C(=O)NC(CC(N)=O)C(=O)NC2C(=O)NC3C(=O)NC(C(=O)NC(C(=O)NCc4ccc(OC)cc4)c4cc(O)cc(O)c4-c4cc3ccc4O)C(OC3CC(C)(N)C(O)C(C)O3)c3ccc(c(Cl)c3)Oc3cc2cc(c3OC2OC(CO)C(O)C(O)C2OC2CC(C)(NCc3ccc(-c4ccccc4)cc3)C(O)C(C)O2)Oc2ccc(cc2Cl)C1O.O=C(O)C(F)(F)F (centres unmarked)"
value_kind = "MIC, SE270"
recorded_value = 2

[[record]]
compound = "CNC(CC(C)C)C(=O)NC1C(=O)NC(CC(N)=O)C(=O)NC2C(=O)NC3C(=O)NC(C(=O)NC(C(=O)NCc4ccccc4)c4cc(O)cc(O)c4-c4cc3ccc4O)C(OC3CC(C)(N)C(O)C(C)O3)c3ccc(c(Cl)c3)Oc3cc2cc(c3OC2OC(CO)C(O)C(O)C2OC2CC(C)(NCc3ccc(-c4ccccc4)cc3)C(O)C(C)O2)Oc2ccc(cc2Cl)C1O.Cl (centres unmarked)"
value_kind = "MIC, SE270"
recorded_value = 1

[[record]]
compound = "CNC(CC(C)C)C(=O)NC1C(=O)NC(CC(N)=O)C(=O)NC2C(=O)NC3C(=O)NC(C(=O)NC(C(=O)NCCCN(C)C)c4cc(O)cc(O)c4-c4cc3ccc4O)C(OC3CC(C)(N)C(O)C(C)O3)c3ccc(c(Cl)c3)Oc3cc2cc(c3OC2OC(CO)C(O)C(O)C2OC2CC(C)(NCc3ccc(-c4ccccc4)cc3)C(O)C(C)O2)Oc2ccc(cc2Cl)C1O (centres unmarked)"
value_kind = "MIC, SE270"
recorded_value = 0.5


Quick check: MIC, SE270 of CNC(CC(C)C)C(=O)NC1C(=O)NC(CC(N)=O)C(=O)NC2C(=O)NC3C(=O)NC(C(=O)NC(C(=O)NCCCOC)c4cc(O)cc(O)c4-c4cc3ccc4O)C(OC3CC(C)(N)C(O)C(C)O3)c3ccc(c(Cl)c3)Oc3cc2cc(c3OC2OC(CO)C(O)C(O)C2OC2CC(C)(NCc3ccc(-c4ccccc4)cc3)C(O)C(C)O2)Oc2ccc(cc2Cl)C1O (centres unmarked) ?
1

###

Please provide measured MIC, SE270 for the entries that follow.
- Tested on: Staphylococcus epidermis 270
- Method notes: Broth micro-dilution MIC, SE 270
- Format: cell-based
- Condition summary: unit assumed
Answers are plain numbers, in µg/mL.

[[record]]
compound = "CNC(CC(C)C)C(=O)NC1C(=O)NC(CC(N)=O)C(=O)NC2C(=O)NC3C(=O)NC(C(=O)NC(C(=O)NCCc4ccccc4)c4cc(O)cc(O)c4-c4cc3ccc4O)C(OC3CC(C)(N)C(O)C(C)O3)c3ccc(c(Cl)c3)Oc3cc2cc(c3OC2OC(CO)C(O)C(O)C2OC2CC(C)(NCc3ccc(-c4ccc(C)cc4)cc3)C(O)C(C)O2)Oc2ccc(cc2Cl)C1O (stereo not drawn)"
recorded_value = 2

[[record]]
compound = "CCCCc1ccc(CNC2(C)CC(OC3C(Oc4c5cc6cc4Oc4ccc(cc4Cl)C(OC4CC(C)(N)C(O)C(C)O4)C4NC(=O)C(NC(=O)C6NC(=O)C(CC(N)=O)NC(=O)C(NC(=O)C(CC(C)C)NC)C(O)c6ccc(c(Cl)c6)O5)c5ccc(O)c(c5)-c5c(O)cc(O)cc5C(C(=O)NCCc5ccccc5)NC4=O)OC(CO)C(O)C3O)OC(C)C2O)cc1.O=C(O)C(F)(F)F (stereo not drawn)"
recorded_value = 2


API: the following record is the query input.
Quick check: MIC, SE270 of CNC(CC(C)C)C(=O)NC1C(=O)NC(CC(N)=O)C(=O)NC2C(=O)NC3C(=O)NC(C(=O)NC(C(=O)NCc4ccccc4)c4cc(O)cc(O)c4-c4cc3ccc4O)C(OC3CC(C)(N)C(O)C(C)O3)c3ccc(c(Cl)c3)Oc3cc2cc(c3OC2OC(CO)C(O)C(O)C2OC2CC(C)(NCc3ccc(-c4ccccc4)cc3)C(O)C(C)O2)Oc2ccc(cc2Cl)C1O (stereo not drawn) ?
0.5

###

- Tested on: Enterococcus, Sensitive (4-6 isolates)
- Method notes: Enterococcus screen, broth micro-dilution MIC, sensitive isolates
- Format: cell-based
- Set-up: unit not given here
- Condition summary: mean of 4-6 isolates
Value kind: Minimum Inhibitory Concentrations (MICs), Mean Values of 4-6 Isolates, Sensitive

// below: answered compounds
[[record]]
compound = "CNC(CC(C)C)C(=O)NC1C(=O)NC(CC(N)=O)C(=O)NC2C(=O)NC3C(=O)NC(C(=O)NC(C(=O)NCCCOC)c4cc(O)cc(O)c4-c4cc3ccc4O)C(OC3CC(C)(N)C(O)C(C)O3)c3ccc(c(Cl)c3)Oc3cc2cc(c3OC2OC(CO)C(O)C(O)C2OC2CC(C)(NCc3ccc(-c4ccccc4)cc3)C(O)C(C)O2)Oc2ccc(cc2Cl)C1O (stereo not drawn) [Example 13]"
recorded_value = 0.072

[[record]]
compound = "CNC(CC(C)C)C(=O)NC1C(=O)NC(CC(N)=O)C(=O)NC2C(=O)NC3C(=O)NC(C(=O)NC(C(=O)NCCc4ccccc4)c4cc(O)cc(O)c4-c4cc3ccc4O)C(OC3CC(C)(N)C(O)C(C)O3)c3ccc(c(Cl)c3)Oc3cc2cc(c3OC2OC(CO)C(O)C(O)C2OC2CC(C)(NCc3ccc(-c4ccccc4)cc3)C(O)C(C)O2)Oc2ccc(cc2Cl)C1O.Cl (stereo not drawn) [Example 18]"
recorded_value = 0.19

[[record]]
compound = "CNC(CC(C)C)C(=O)NC1C(=O)NC(CC(N)=O)C(=O)NC2C(=O)NC3C(=O)NC(C(=O)NC(C(=O)NCc4ccccc4)c4cc(O)cc(O)c4-c4cc3ccc4O)C(OC3CC(C)(N)C(O)C(C)O3)c3ccc(c(Cl)c3)Oc3cc2cc(c3OC2OC(CO)C(O)C(O)C2OC2CC(C)(NCc3ccc(-c4ccccc4)cc3)C(O)C(C)O2)Oc2ccc(cc2Cl)C1O.Cl (stereo not drawn) [Example 11]"
recorded_value = 0.11

[[record]]
compound = "CNC(CC(C)C)C(=O)NC1C(=O)NC(CC(N)=O)C(=O)NC2C(=O)NC3C(=O)NC(C(=O)NC(C(=O)NCCC(c4ccccc4)c4ccccc4)c4cc(O)cc(O)c4-c4cc3ccc4O)C(OC3CC(C)(N)C(O)C(C)O3)c3ccc(c(Cl)c3)Oc3cc2cc(c3OC2OC(CO)C(O)C(O)C2OC2CC(C)(NCc3ccc(-c4ccccc4)cc3)C(O)C(C)O2)Oc2ccc(cc2Cl)C1O (stereo not drawn) [Example 22]"
recorded_value = 0.87

[[record]]
compound = "CNC(CC(C)C)C(=O)NC1C(=O)NC(CC(N)=O)C(=O)NC2C(=O)NC3C(=O)NC(C(=O)NC(C(=O)NCCCc4ccccc4)c4cc(O)cc(O)c4-c4cc3ccc4O)C(OC3CC(C)(N)C(O)C(C)O3)c3ccc(c(Cl)c3)Oc3cc2cc(c3OC2OC(CO)C(O)C(O)C2OC2CC(C)(N)C(O)C(C)O2)Oc2ccc(cc2Cl)C1O (stereo not drawn) [Example 20, A82846B, (3-phenyl-n-propyl) amide]"
recorded_value = 0.22

[[record]]
compound = "CNC(CC(C)C)C(=O)NC1C(=O)NC(CC(N)=O)C(=O)NC2C(=O)NC3C(=O)NC(C(=O)NC(C(=O)NCCCN(C)C)c4cc(O)cc(O)c4-c4cc3ccc4O)C(OC3CC(C)(N)C(O)C(C)O3)c3ccc(c(Cl)c3)Oc3cc2cc(c3OC2OC(CO)C(O)C(O)C2OC2CC(C)(NCc3ccc(-c4ccccc4)cc3)C(O)C(C)O2)Oc2ccc(cc2Cl)C1O (stereo not drawn) [Example 21]"
recorded_value = 0.054

[[record]]
compound = "CNC(CC(C)C)C(=O)NC1C(=O)NC(CC(N)=O)C(=O)NC2C(=O)NC3C(=O)NC(C(=O)NC(C(=O)NCCc4ccccc4)c4cc(O)cc(O)c4-c4cc3ccc4O)C(OC3CC(C)(N)C(O)C(C)O3)c3ccc(c(Cl)c3)Oc3cc2cc(c3OC2OC(CO)C(O)C(O)C2OC2CC(C)(NCc3ccc(-c4ccc(C)cc4)cc3)C(O)C(C)O2)Oc2ccc(cc2Cl)C1O (stereo not drawn) [Example 19]"
recorded_value = 0.22

[[record]]
compound = "CNC(CC(C)C)C(=O)NC1C(=O)NC(CC(N)=O)C(=O)NC2C(=O)NC3C(=O)NC(C(=O)NC(C(=O)NCc4ccc(OC)cc4)c4cc(O)cc(O)c4-c4cc3ccc4O)C(OC3CC(C)(N)C(O)C(C)O3)c3ccc(c(Cl)c3)Oc3cc2cc(c3OC2OC(CO)C(O)C(O)C2OC2CC(C)(NCc3ccc(-c4ccccc4)cc3)C(O)C(C)O2)Oc2ccc(cc2Cl)C1O.O=C(O)C(F)(F)F (stereo not drawn) [Example 12]"
recorded_value = 0.13


# per-item lookup of Minimum Inhibitory Concentrations (MICs), Mean Values of 4-6 Isolates, Sensitive; items listed below
1. CNC(CC(C)C)C(=O)NC1C(=O)NC(CC(N)=O)C(=O)NC2C(=O)NC3C(=O)NC(C(=O)NC(C(=O)NCCCN(C)C)c4cc(O)cc(O)c4-c4cc3ccc4O)C(OC3CC(C)(N)C(O)C(C)O3)c3ccc(c(Cl)c3)Oc3cc2cc(c3OC2OC(CO)C(O)C(O)C2OC2CC(C)(N)C(O)C(C)O2)Oc2ccc(cc2Cl)C1O.O=C(O)C(F)(F)F (stereo not drawn) [Example 23]
2. CNC(CC(C)C)C(=O)NC1C(=O)NC(CC(N)=O)C(=O)NC2C(=O)NC3C(=O)NC(C(=O)NC(C(=O)NCc4ccccc4)c4cc(O)cc(O)c4-c4cc3ccc4O)C(OC3CC(C)(N)C(O)C(C)O3)c3ccc(c(Cl)c3)Oc3cc2cc(c3OC2OC(CO)C(O)C(O)C2OC2CC(C)(N)C(O)C(C)O2)Oc2ccc(cc2Cl)C1O.O=C(O)C(F)(F)F (stereo not drawn) [Example 24]
3. CNC(CC(C)C)C(=O)NC1C(=O)NC(CC(N)=O)C(=O)NC2C(=O)NC3C(=O)NC(C(=O)NC(C(=O)NCCc4ccccc4)c4cc(O)cc(O)c4-c4cc3ccc4O)C(OC3CC(C)(N)C(O)C(C)O3)c3ccc(c(Cl)c3)Oc3cc2cc(c3OC2OC(CO)C(O)C(O)C2OC2CC(C)(N)C(O)C(C)O2)Oc2ccc(cc2Cl)C1O.O=C(O)C(F)(F)F (stereo not drawn) [Example 16]

1: 0.44; 2: 0.38; 3: 0.25

Quick check: Minimum Inhibitory Concentrations (MICs), Mean Values of 4-6 Isolates, Sensitive of CNC(CC(C)C)C(=O)NC1C(=O)NC(CC(N)=O)C(=O)NC2C(=O)NC3C(=O)NC(C(=O)NC(C(=O)NCc4ccccc4)c4cc(O)cc(O)c4-c4cc3ccc4O)C(OC3CC(C)(N)C(O)C(C)O3)c3ccc(c(Cl)c3)Oc3cc2cc(c3OC2OC(CO)C(O)C(O)C2OC2CC(C)(NCc3ccc(-c4ccccc4)cc3)C(O)C(C)O2)Oc2ccc(cc2Cl)C1O (stereo not drawn) [Example 10] ?
0.14
